Item-by-item account of inhibition at 5 min
- experimental-target: CYP2C8 (Homo sapiens, UniProt P10632)
- Construct: Pooled human microsomes were obtained from Sekisui XenoTech, KS; tissue Sekisui XenoTech, KS; host or cells: pooled human liver microsomes
- Sequence (P10632 whole entry): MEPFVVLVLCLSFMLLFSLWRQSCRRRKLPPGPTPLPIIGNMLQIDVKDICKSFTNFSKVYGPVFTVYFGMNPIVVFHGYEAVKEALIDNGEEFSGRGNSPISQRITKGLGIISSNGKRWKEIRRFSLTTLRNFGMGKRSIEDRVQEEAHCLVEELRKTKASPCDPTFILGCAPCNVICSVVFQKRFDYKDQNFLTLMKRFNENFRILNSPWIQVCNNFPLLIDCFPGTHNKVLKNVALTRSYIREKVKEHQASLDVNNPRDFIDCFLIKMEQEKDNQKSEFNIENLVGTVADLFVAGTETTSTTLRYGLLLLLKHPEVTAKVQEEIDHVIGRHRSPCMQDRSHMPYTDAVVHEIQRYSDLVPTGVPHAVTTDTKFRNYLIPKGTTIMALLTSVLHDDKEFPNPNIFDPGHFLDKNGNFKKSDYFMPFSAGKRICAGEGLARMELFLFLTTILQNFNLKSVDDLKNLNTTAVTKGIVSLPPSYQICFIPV
- run-description: CYP Inhibition Assay (CYP2C8, human liver microsomes, paclitaxel substrate)
- Assay type: in vitro ADME
- measurement-parameters: pH 7.4; pooled human liver microsomes 0.1 mg/mL, probe substrate paclitaxel

{"compound": "Cn1cnc(S(=O)(=O)CC2CCC3=Cc4c(cnn4-c4ccc(F)cc4)C[C@]3(C(=O)c3cc(C(F)(F)F)ccn3)C2)n1 (stereo partly drawn) [Example 377]", "experimental-target": "CYP2C8 (Homo sapiens, UniProt P10632)", "recorded-value": "25 to 50%"}
{"compound": "CC(C)CN([C@H]1CCC2=Cc3c(cnn3-c3ccc(F)cc3)C[C@]2(C(=O)c2ncc(C(F)(F)F)s2)C1)S(=O)(=O)c1ccn(C)n1 [Example 212]", "experimental-target": "CYP2C8 (Homo sapiens, UniProt P10632)", "recorded-value": "25 to 50%"}
{"compound": "Cn1ccc(S(=O)(=O)N(C2CC(F)(F)C2)[C@H]2CCC3=Cc4c(cnn4-c4ccc(F)cc4)C[C@]3(C(=O)c3cc(F)ccn3)C2)n1 [Example 267]", "experimental-target": "CYP2C8 (Homo sapiens, UniProt P10632)", "recorded-value": "50 to 75%"}
{"compound": "CCN([C@H]1CCC2=Cc3c(cnn3-c3ccc(F)cc3)C[C@]2(C(=O)c2cc(C(F)(F)F)ccn2)C1)S(=O)(=O)c1cn(C)cn1 [Example 214]", "experimental-target": "CYP2C8 (Homo sapiens, UniProt P10632)", "recorded-value": "≤ 25%"}

Log: CYP2C8 (Homo sapiens, UniProt P10632), compound O=C(c1cc(C(F)(F)F)ccn1)[C@]12Cc3cnn(-c4ccc(F)cc4)c3C=C1CC[C@H](N(C1COC1)S(=O)(=O)c1ccc(F)cc1)C2 [Example 204] , inhibition at 5 min = 25 to 50%

The reported inhibition at 5 min value, CYP2C8 (Homo sapiens, UniProt P10632), for Cn1cnc(S(=O)(=O)N(C2CC(F)(F)C2)[C@H]2CCC3=Cc4c(cnn4-c4ccc(F)cc4)C[C@]3(C(=O)c3cc(F)ccn3)C2)n1 [Example 354] reads 25 to 50%

The measured inhibition at 5 min that Cn1ncc(S(=O)(=O)N(CC(F)(F)F)[C@H]2CCC3=Cc4c(cnn4-c4ccc(F)cc4)C[C@]3(C(=O)c3ncc(C(F)(F)F)s3)C2)n1 [Example 300] showed for CYP2C8 (Homo sapiens, UniProt P10632) is 50 to 75%
